The reported numbers originate from paper PMC5540273.

%Inh overview
system: NLK; details: concentration: 1 μM, replicates: in singlicate; n = 1;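 also: KINOMEscan kinase panel screen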
Field: numeric (%). Do not append units.

Here's what some known entries look like.
In [3]: df
Out[3]:
                            chemical_string  unit_info  assay_result
0  CS(=O)(=O)CCNCc1nc(-c2ccc3ncnc(Nc4ccc(OCc5ccccc5)c(Cl)c4)c3c2)cs1.Cl          %             0
1      COc1cc2ncnc(Nc3cccc(Br)c3)c2cc1OC.Cl          %            33
2  Cc1ccc(NC(=O)c2ccc(Cl)cc2)cc1-c1ccc(C(=O)Nc2ccncc2)cc1          %            38

// recorded %Inh for CN1c2ccc(-c3ccc(C(N)=O)cc3)cc2-c2[nH]ncc2S1(=O)=O : 8

// recorded %Inh for CC(C)c1cc(-c2ccc3c(N)n[nH]c3c2)nc(N)n1 : 19
